Listed compounds paired with reported CLH
# protocol_notes: Clearance in rat hepatocytes based well stirred model
# Format: ADME, cell-based, Hepatocyte
Output spec: scalar in L/h/kg, unitless text.

Before answering, review these 2 worked examples.
| smiles | result_number |
| --- | --- |
| Cc1cccc([C@H](CC(=O)O)C(=O)N2CC[C@@H](CCc3ccc4c(n3)NCCC4)C2)c1 | 2.76 |
| O=C(O)C[C@H](C(=O)N1CC[C@@H](CCc2ccc3c(n2)NCCC3)C1)c1cccc(C(F)(F)F)c1 | 4.08 |

Field: next compound
Lookup: Suppose we examine the compound N#Cc1cccc([C@H](CC(=O)O)C(=O)N2CC[C@@H](CCc3ccc4c(n3)NCCC4)C2)c1 ; what CLH value has been reported?
Found: 1.8

* * *

Listed compounds paired with reported clearance
# protocol_notes: Clearance in human microsomes based well stirred model
# Format: ADME, Microsome

Before answering, review these 2 worked examples.
| smiles | clearance |
| --- | --- |
| O=C(O)C[C@H](C(=O)N1CC[C@@H](CCc2ccc3c(n2)NCCC3)C1)c1cccc(C(F)(F)F)c1 | < 6 mL/min/kg |
| N#Cc1cccc([C@H](CC(=O)O)C(=O)N2CC[C@@H](CCc3ccc4c(n3)NCCC4)C2)c1 | < 6 mL/min/kg |

Field: next compound
Lookup: Suppose we examine the compound Cc1cccc([C@H](CC(=O)O)C(=O)N2CC[C@@H](CCc3ccc4c(n3)NCCC4)C2)c1 ; what clearance value has been reported?
Found: < 6 mL/min/kg

* * *

# measurement_target: Integrin alpha-V/beta-3 (Homo sapiens, UniProt P05106+P06756)
# Sequence (P05106 27-788 limits assumed): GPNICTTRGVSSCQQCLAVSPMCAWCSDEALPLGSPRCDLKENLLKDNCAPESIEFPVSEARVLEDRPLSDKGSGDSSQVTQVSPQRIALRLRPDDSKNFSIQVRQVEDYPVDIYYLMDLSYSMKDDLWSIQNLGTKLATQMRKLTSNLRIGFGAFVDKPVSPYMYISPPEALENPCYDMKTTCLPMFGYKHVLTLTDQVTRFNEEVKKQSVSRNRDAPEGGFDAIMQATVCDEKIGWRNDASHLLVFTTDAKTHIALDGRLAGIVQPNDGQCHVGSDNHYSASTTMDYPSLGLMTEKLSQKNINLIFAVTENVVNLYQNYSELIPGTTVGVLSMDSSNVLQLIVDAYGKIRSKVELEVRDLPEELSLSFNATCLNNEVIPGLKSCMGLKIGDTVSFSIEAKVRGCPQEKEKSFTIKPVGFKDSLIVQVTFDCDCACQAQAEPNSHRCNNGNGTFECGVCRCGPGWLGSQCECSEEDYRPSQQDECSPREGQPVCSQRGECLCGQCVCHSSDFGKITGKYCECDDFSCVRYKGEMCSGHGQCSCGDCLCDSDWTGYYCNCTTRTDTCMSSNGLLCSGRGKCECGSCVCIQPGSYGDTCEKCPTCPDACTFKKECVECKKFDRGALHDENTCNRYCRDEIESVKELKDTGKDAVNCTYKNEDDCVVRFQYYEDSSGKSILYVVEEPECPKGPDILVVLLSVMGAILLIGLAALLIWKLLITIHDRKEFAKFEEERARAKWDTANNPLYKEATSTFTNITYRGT
# Sequence (P06756 31-889 limits assumed): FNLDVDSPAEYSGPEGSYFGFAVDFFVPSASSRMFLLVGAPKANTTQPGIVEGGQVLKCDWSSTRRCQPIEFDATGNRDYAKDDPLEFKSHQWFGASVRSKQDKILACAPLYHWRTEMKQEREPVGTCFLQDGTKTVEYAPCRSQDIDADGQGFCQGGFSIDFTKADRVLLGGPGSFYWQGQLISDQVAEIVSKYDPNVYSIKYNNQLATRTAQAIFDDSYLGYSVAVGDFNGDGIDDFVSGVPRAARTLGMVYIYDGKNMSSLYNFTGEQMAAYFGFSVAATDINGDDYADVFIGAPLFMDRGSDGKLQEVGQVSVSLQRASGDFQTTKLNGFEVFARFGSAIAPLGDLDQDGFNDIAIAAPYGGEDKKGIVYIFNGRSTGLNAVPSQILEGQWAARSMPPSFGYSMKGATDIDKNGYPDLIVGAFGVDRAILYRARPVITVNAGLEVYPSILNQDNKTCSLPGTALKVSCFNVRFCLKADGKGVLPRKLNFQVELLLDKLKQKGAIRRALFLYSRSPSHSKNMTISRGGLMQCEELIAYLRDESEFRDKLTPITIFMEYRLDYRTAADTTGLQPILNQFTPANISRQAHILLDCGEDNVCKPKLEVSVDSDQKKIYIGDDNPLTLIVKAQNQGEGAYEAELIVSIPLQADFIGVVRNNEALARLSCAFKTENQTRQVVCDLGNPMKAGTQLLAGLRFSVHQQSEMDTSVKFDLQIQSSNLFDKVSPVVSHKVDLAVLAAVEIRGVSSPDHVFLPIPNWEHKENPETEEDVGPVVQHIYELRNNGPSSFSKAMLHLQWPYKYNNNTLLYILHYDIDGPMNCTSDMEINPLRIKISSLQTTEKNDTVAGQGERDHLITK
# Sequence (P06756 891-1048 limits assumed): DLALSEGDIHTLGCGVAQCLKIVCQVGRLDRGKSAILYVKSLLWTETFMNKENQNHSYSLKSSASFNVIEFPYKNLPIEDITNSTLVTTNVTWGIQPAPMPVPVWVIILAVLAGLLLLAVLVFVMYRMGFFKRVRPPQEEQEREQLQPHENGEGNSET
# protocol_notes: Inhibition of integrin alphavbeta3 (unknown origin) by fluorescence polarization assay
attribute_measured: IC50 (nM)
Output spec: scalar in nM, unitless text.

Before answering, review these 5 worked examples.
| molecule | measurement_target | IC50, nM |
| --- | --- | --- |
| O=C(O)C[C@H](C(=O)N1CC[C@@H](CCc2ccc3c(n2)NCCC3)C1)c1cc(Br)cc(Br)c1 | Integrin alpha-V/beta-3 (Homo sapiens, UniProt P05106+P06756) | 1580 |
| CN(CCCCc1ccc2c(n1)NCCC2)C(=O)[C@@H](CC(=O)O)c1ccccc1 | Integrin alpha-V/beta-3 (Homo sapiens, UniProt P05106+P06756) | 5010 |
| O=C(O)C[C@H](C(=O)N1CCCC(CCc2ccc3c(n2)NCCC3)C1)c1ccccc1 (stereo partly drawn) | Integrin alpha-V/beta-3 (Homo sapiens, UniProt P05106+P06756) | 6310 |
| O=C(O)C[C@@H](C(=O)N1CC[C@@H](CCc2ccc3c(n2)NCCC3)C1)c1cccc(Br)c1 | Integrin alpha-V/beta-3 (Homo sapiens, UniProt P05106+P06756) | 10000 |
| C=C(C)c1cccc([C@H](CC(=O)O)C(=O)N2CC[C@@H](CCc3ccc4c(n3)NCCC4)C2)c1 | Integrin alpha-V/beta-3 (Homo sapiens, UniProt P05106+P06756) | 2510 |

Lookup: Lab note: need IC50 for O=C(O)C[C@H](C(=O)N1CC(CCCc2ccc3c(n2)NCCC3)C1)c1ccccc1 on Integrin alpha-V/beta-3 (Homo sapiens, UniProt P05106+P06756), anyone have it?
Found: 794

Lookup: Lab note: need IC50 for O=C(O)C[C@H](C(=O)N1CC(CCc2ccc3c(n2)NCCC3)C1)c1ccccc1 on Integrin alpha-V/beta-3 (Homo sapiens, UniProt P05106+P06756), anyone have it?
Found: 3160

Sourced from ChEMBL document CHEMBL4706543
